Reported Refractive index values for a set of compounds
Test: Refractive index determination
Details: neat SFA
Lab note: jot the number down without any unit.

// below: answered compounds
Given CCCCCCCC(F)(F)C(F)(F)C(F)(F)C(F)(F)C(F)(F)C(F)(F)F [Example F6H7] , state its recorded Refractive index. 1.3366

Given CCCCCCC(F)(F)C(F)(F)C(F)(F)C(F)(F)F [Example F4H6] , state its recorded Refractive index. 1.334

Given CCCCCCCC(F)(F)C(F)(F)C(F)(F)C(F)(F)F [Example F4H7] , state its recorded Refractive index. 1.3357

Given CCCCCCC(F)(F)C(F)(F)C(F)(F)C(F)(F)C(F)(F)C(F)(F)F [Example F6H6] , state its recorded Refractive index. 1.3224

***
Given CCCCCCCCC(F)(F)C(F)(F)C(F)(F)C(F)(F)C(F)(F)C(F)(F)F [Example F6H8] , state its recorded Refractive index. 1.3432

# credit: patent US8614178B2
